System: CAKI-1 renal
assay notes: NCI tumour cell line growth inhibition, 48 h
property name: TGI

• CC[C@@H]1C[C@@H](O)[C@@H]2[C@H](O)[C@H](O)CN2C1 = > 100 µM
• CN(C)CC1CN(C(=O)Nc2ccccc2)C(=N)O1 (centres undefined) = > 100 µM
• C/C(=C\c1ccc2c(c1)OCO2)[N+](=O)[O-] = 4.41 µM
• N=C(N)c1ccc(-c2ccc(-c3ccc(C(=N)N)cc3)o2)cc1 = > 100 µM
• Clc1ccc(CCn2cncn2)c(Cl)c1 = > 100 µM
• Cn1c(C2CC(C)(C)c3c2c2ccccc2n3C)cc2ccccc21 (centres undefined) = > 304 µM
• COc1ccc2nc(-c3ccc(O)cc3)cn2c1 = > 100 µM
• O=C1C=Cc2c(I)sc(I)c21 = 33.3 µM
• c1ccc(-c2cc(-c3cc(-c4ccccc4)no3)on2)cc1 = > 100 µM

====

Test system: MDA-N
assay notes: NCI tumour cell line growth inhibition, 48 h
property name: TGI

- COc1ccc(N=C2C(=Nc3ccc(OC)cc3)N(c3ccccc3[N+](=O)[O-])C(=S)N2c2ccc(OC)cc2)cc1: > 100 µM
- Cc1c(C)c2ccc(O)cc2[nH]c1=O: > 100 µM
- CC(C)C(/C=C/c1ccc(Cl)cc1)=N\NC(=S)NN: > 100 µM
- Nc1nc(Cl)cc(NCC2(CO)CC(Cc3ccccc3)C2)n1 (centres undefined): > 86.9 µM

====

Tested on: A498 renal
assay notes: NCI tumour cell line growth inhibition, 48 h; in the data active = GI50 below about 0.43 µM; inactive = the rest
Outcomes: Y (active), N (inactive)

- COc1cc2c3c(n(CCCN4CCOCC4)c(=O)c2cc1OC)-c1cc2c(cc1C3=O)OCO2: N
- O=C(Nc1ncc(Cc2ccc(Cl)cc2)s1)c1ccc2c(c1)OCCO2: Y
- O=C(CN/C=C\C(=O)c1cc(Cl)ccc1Cl)c1ccccc1: N
- N=c1c2c(=O)n3c(nc2nc2sc4ccc(Cl)cc4n12)-c1ccccc1Sc1ccccc1-3: Y
- Cn1cc(C2=C(c3cccc(NCC(O)CO)c3)C(=O)NC2=O)c2cc(Cl)ccc21 (configuration not stated): Y
- O=C1C=CC(=O)N1CCCCCCCCCCN1C(=O)C=CC1=O: N
- CCOC(=O)C1=C(N)Oc2cc(OC)ccc2C1c1ccc(F)c(F)c1 (configuration not stated): N

====

Reported TGI values for a set of compounds
Tested on: MALME-3M melanoma
assay notes: NCI tumour cell line growth inhibition, 48 h
property name: TGI

• N=c1c2ccccc2nc2oc3ccc(Cl)cc3n12 = 40.1 µM
• O=C(CN/C=C\C(=O)c1cc(Cl)ccc1Cl)c1ccccc1 = 78.3 µM
• O=C1NCN(c2ccccc2)C12CCN(CCCSc1ccc(F)cc1)CC2 = 52.7 µM
• CN(C)C1COC2Cc3ccccc3C1O2 (stereo unspecified) = > 100 µM
• O=C1CC23CC(=O)CC2(C1)c1ccccc1C3=O (stereo unspecified) = > 100 µM
• CCOC(=O)c1c2c(n3cccc(F)c13)C(=O)c1ncccc1C2=O = 6.77 µM

====

Tested on: SNB-19 CNS
assay notes: NCI tumour cell line growth inhibition, 48 h
property name: TGI

* O=CN/C=C/c1ccccc1O | > 100 µM
* [O-][N+]1=C(c2ccccc2)COc2ccccc21 | > 100 µM
* O=[N+]([O-])c1ccc(C2N3CCCCC3[C@@H]3c4[nH]c5ccccc5c4CCN23)cc1 (stereo partly specified) | 67.1 µM
* N=C1N=Nc2nc(C3(c4nc5n(c4O)C(=N)N=N5)Cc4ccccc4C3=O)c(O)n21 (stereo unspecified) | > 100 µM
* COC1(C)Cc2c(c(C)c(O)c3c2C(=O)C=C(Cl)C3=O)O1 (stereo unspecified) | > 100 µM
* Cc1c(C)c2ccc(O)cc2[nH]c1=O | > 100 µM
